# maps each entry to its log10 Kd
# MEASURED_TARGET: T1, AFP158/HLA-A*02:01 complex (human)
# T1 construct: biotinylated on the BSP by BirA for ELISA and panning; also called biotinylated AFP158/HLA-A*02:01 complex; Bio-AFP158
# METHOD_NOTES: SPR, crude scFv captured;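 further: Peptide–MHC complex flowed at several concentrations over sensorchip-captured scFv, Kd derived from on- and off-rates obtained from the association and dissociation curves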
Reminder: these figures are log10 of reported Kd, in nM before transformation.

AS170036 VL1VH1 HL107I (scFv) scFv: QSALTQPRSVSGSPGQSVTISCAGTSSDVGSENYVSWYQQHPGKAPKLMIYQVNKRASGVPDRFSGSKSGNTASLTISGLQAEDEADYYCASYRSSDHNIVFGGGTKLTVLGGGGSGGGGSGGGGSEVQLVESGGGLVQPGGSLRLSCAASGFTFSSYAMSWVRQAPGKGLEWVSTINSGTGSPYYADSVKGRFTISRDNSKNTLYLQMNSLRAEDTAVYYCAKNFFDGSWFIGPPAMDYWGQGTLVTVSSHHHHHH ... 2.38
AS170036 VL1VH1 HP110E (scFv) scFv: QSALTQPRSVSGSPGQSVTISCAGTSSDVGSENYVSWYQQHPGKAPKLMIYQVNKRASGVPDRFSGSKSGNTASLTISGLQAEDEADYYCASYRSSDHNIVFGGGTKLTVLGGGGSGGGGSGGGGSEVQLVESGGGLVQPGGSLRLSCAASGFTFSSYAMSWVRQAPGKGLEWVSTINSGTGSPYYADSVKGRFTISRDNSKNTLYLQMNSLRAEDTAVYYCAKNFFDGSWFLGPEAMDYWGQGTLVTVSSHHHHHH ... 2.18
AS170036 VL1VH1-VHG108M (scFv) scFv: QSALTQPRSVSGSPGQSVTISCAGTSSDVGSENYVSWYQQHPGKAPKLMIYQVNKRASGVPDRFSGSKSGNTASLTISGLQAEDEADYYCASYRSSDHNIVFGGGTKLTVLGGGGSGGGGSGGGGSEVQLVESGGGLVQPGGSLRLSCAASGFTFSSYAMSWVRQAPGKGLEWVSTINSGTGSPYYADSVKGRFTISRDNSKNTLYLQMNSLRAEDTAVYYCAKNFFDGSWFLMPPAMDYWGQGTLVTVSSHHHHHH ... 1.76
AS170036 VL1VH1 HF101D (scFv) scFv: QSALTQPRSVSGSPGQSVTISCAGTSSDVGSENYVSWYQQHPGKAPKLMIYQVNKRASGVPDRFSGSKSGNTASLTISGLQAEDEADYYCASYRSSDHNIVFGGGTKLTVLGGGGSGGGGSGGGGSEVQLVESGGGLVQPGGSLRLSCAASGFTFSSYAMSWVRQAPGKGLEWVSTINSGTGSPYYADSVKGRFTISRDNSKNTLYLQMNSLRAEDTAVYYCAKNFDDGSWFLGPPAMDYWGQGTLVTVSSHHHHHH ... 3.15

Incoming: Output measured log10 Kd for this item: AS170036 VL1VH1 HF101N (scFv) scFv: QSALTQPRSVSGSPGQSVTISCAGTSSDVGSENYVSWYQQHPGKAPKLMIYQVNKRASGVPDRFSGSKSGNTASLTISGLQAEDEADYYCASYRSSDHNIVFGGGTKLTVLGGGGSGGGGSGGGGSEVQLVESGGGLVQPGGSLRLSCAASGFTFSSYAMSWVRQAPGKGLEWVSTINSGTGSPYYADSVKGRFTISRDNSKNTLYLQMNSLRAEDTAVYYCAKNFNDGSWFLGPPAMDYWGQGTLVTVSSHHHHHH
Outgoing: 3.57

Incoming: Provide only the value of recorded log10 Kd for AS170036 VL1VH1 HG108R (scFv) scFv: QSALTQPRSVSGSPGQSVTISCAGTSSDVGSENYVSWYQQHPGKAPKLMIYQVNKRASGVPDRFSGSKSGNTASLTISGLQAEDEADYYCASYRSSDHNIVFGGGTKLTVLGGGGSGGGGSGGGGSEVQLVESGGGLVQPGGSLRLSCAASGFTFSSYAMSWVRQAPGKGLEWVSTINSGTGSPYYADSVKGRFTISRDNSKNTLYLQMNSLRAEDTAVYYCAKNFFDGSWFLRPPAMDYWGQGTLVTVSSHHHHHH
Outgoing: 3.18

Incoming: Complete the entry with log10 Kd for AS170036 VL1VH1 HG56Q (scFv) scFv: QSALTQPRSVSGSPGQSVTISCAGTSSDVGSENYVSWYQQHPGKAPKLMIYQVNKRASGVPDRFSGSKSGNTASLTISGLQAEDEADYYCASYRSSDHNIVFGGGTKLTVLGGGGSGGGGSGGGGSEVQLVESGGGLVQPGGSLRLSCAASGFTFSSYAMSWVRQAPGKGLEWVSTINSGTQSPYYADSVKGRFTISRDNSKNTLYLQMNSLRAEDTAVYYCAKNFFDGSWFLGPPAMDYWGQGTLVTVSSHHHHHH
Outgoing: 2.38

Incoming: Return the recorded log10 Kd value; entry: AS170036 VL1VH1 HD102A (scFv) scFv: QSALTQPRSVSGSPGQSVTISCAGTSSDVGSENYVSWYQQHPGKAPKLMIYQVNKRASGVPDRFSGSKSGNTASLTISGLQAEDEADYYCASYRSSDHNIVFGGGTKLTVLGGGGSGGGGSGGGGSEVQLVESGGGLVQPGGSLRLSCAASGFTFSSYAMSWVRQAPGKGLEWVSTINSGTGSPYYADSVKGRFTISRDNSKNTLYLQMNSLRAEDTAVYYCAKNFFAGSWFLGPPAMDYWGQGTLVTVSSHHHHHH
Outgoing: 2.77

Incoming: Consider the binder AS170036 VL1VH1 HL107N (scFv) scFv: QSALTQPRSVSGSPGQSVTISCAGTSSDVGSENYVSWYQQHPGKAPKLMIYQVNKRASGVPDRFSGSKSGNTASLTISGLQAEDEADYYCASYRSSDHNIVFGGGTKLTVLGGGGSGGGGSGGGGSEVQLVESGGGLVQPGGSLRLSCAASGFTFSSYAMSWVRQAPGKGLEWVSTINSGTGSPYYADSVKGRFTISRDNSKNTLYLQMNSLRAEDTAVYYCAKNFFDGSWFNGPPAMDYWGQGTLVTVSSHHHHHH and give its recorded log10 Kd.
Outgoing: 2.72
